All figures here come from patent US10363239B2.

Overview of recorded % DAMGO + BFNA for various molecules
system: mu opiate receptor (MOR); experiment: MOR agonist activity using [35S]GTPγS binding assay in striatal membranes; type: biochemical; conditions: Series C-1; 1 μM compound + β-FNA, relative to DAMGO + BFNA
Number first, unit second.

{"MOLECULE": "COc1ccccc1S(=O)(=O)N1CCC2(CC1)OCCN2S(=O)(=O)c1ccccc1OC [Compound C0003]", "OUTCOME MEASURE": "% DAMGO + BFNA", "RESULT": "163.9%"}
{"MOLECULE": "COc1ccc(C(=O)N2CCC3(CC2)OCCN3S(=O)(=O)c2ccc(OC)cc2)cc1 [Compound C0018]", "OUTCOME MEASURE": "% DAMGO + BFNA", "RESULT": "162.1%"}
{"MOLECULE": "Cc1ccc(S(=O)(=O)N2CCC3(CC2)OCCN3S(=O)(=O)c2ccc(C)cc2)cc1 [Compound C0001]", "OUTCOME MEASURE": "% DAMGO + BFNA", "RESULT": "52.9%"}
{"MOLECULE": "O=S(=O)(c1ccc(-c2ccccc2)cc1)N1CCC2(CC1)OCCN2S(=O)(=O)c1ccc(-c2ccccc2)cc1 [Compound C0010]", "OUTCOME MEASURE": "% DAMGO + BFNA", "RESULT": "135.0%"}
{"MOLECULE": "O=S(=O)(c1ccc(C(F)(F)F)cc1)N1CCC2(CC1)OCCN2S(=O)(=O)c1ccc(C(F)(F)F)cc1 [Compound C0012]", "OUTCOME MEASURE": "% DAMGO + BFNA", "RESULT": "280.7%"}
{"MOLECULE": "O=C(c1ccc([N+](=O)[O-])cc1)N1CCC2(CC1)OCCN2C(=O)c1ccc([N+](=O)[O-])cc1 [Compound C0032]", "OUTCOME MEASURE": "% DAMGO + BFNA", "RESULT": "248.2%"}

Form: item CC(=O)c1ccc(C(=O)N2CCC3(CC2)OCCN3C(=O)c2ccc(C(C)=O)cc2)cc1 [Compound C0054] ; test system mu opiate receptor (MOR); % DAMGO + BFNA: 98.9%

Form: item O=S(=O)(c1cccs1)N1CCC2(CC1)OCCN2S(=O)(=O)c1cccs1 [Compound C0141M] ; test system mu opiate receptor (MOR); % DAMGO + BFNA: 121.9%

Form: item COC(=O)c1ccc(S(=O)(=O)N2CCC3(CC2)OCCN3S(=O)(=O)c2ccc(C(=O)OC)cc2)cc1 [Compound C0028] ; test system mu opiate receptor (MOR); % DAMGO + BFNA: 472.3%

Form: item O=S(=O)(c1ccc(OC(F)(F)F)cc1)N1CCC2(CC1)OCCN2S(=O)(=O)c1ccc(OC(F)(F)F)cc1 [Compound C0006] ; test system mu opiate receptor (MOR); % DAMGO + BFNA: 7.2%

Form: item CC(=O)c1ccc(S(=O)(=O)N2CCC3(CC2)OC(CN(C)C)CN3S(=O)(=O)c2ccc(C(C)=O)cc2)cc1 (stereo not shown) [Compound C0065] ; test system mu opiate receptor (MOR); % DAMGO + BFNA: 119.5%

Form: item O=C1CN(Cc2ccccc2)C2(CCN(S(=O)(=O)c3cc(Cl)c(O)c(Cl)c3)CC2)N1 [Compound C0139M] ; test system mu opiate receptor (MOR); % DAMGO + BFNA: 129.8%

Form: item CC(=O)Nc1ccc(S(=O)(=O)N2CCC3(CC2)OCCN3S(=O)(=O)c2ccc(NC(C)=O)cc2)cc1 [Compound C0013] ; test system mu opiate receptor (MOR); % DAMGO + BFNA: 61.8%

Form: item O=S(=O)(c1ccc(Br)cc1Br)N1CCC2(CC1)OCCN2S(=O)(=O)c1ccc(Br)cc1Br [Compound C0070] ; test system mu opiate receptor (MOR); % DAMGO + BFNA: 331.0%
